# assay-summary: A549 cell viability effects, profiling panel, calcein-AM fluorescence, 48 h, basal (AID 1162); note: test concentration not given here
# settings: higher = more signal
quantity: z-score

COC(=O)[C@H](C)NC(=O)CCC1CC(OC(=O)NCCc2ccc(F)cc2)CC2(CCCC(COC(=O)NCC3CCCCC3)O2)O1 (some centres undefined) :: -0.111
C[C@@H]1CC[C@H]2C(=O)N3[C@@H](CC[C@@H](C)[C@@H]3c3ccc(Br)cc3)C(=O)N2[C@H]1c1ccc(Br)cc1 :: -0.569
O=C1C[C@@H](O)[C@@H](O)[C@@H]2[C@@H]3C(=O)N(Cc4ccccc4)C(=O)[C@@H]3CC[C@H]12 :: -0.801

Moving on to another compound below.
Request: Give z-score for the following compound: CC#CCOCCC=C1c2ccccc2[C@@H](OC)[C@@H]1C
Result: 0.0337
